Experiment: small-molecule binders of probe aLefty1, primary screen, biochemical, small-molecule microarray, 635/667 nm fluorescence (AID 1153);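 also: score merges spot fluorescence with signal-to-noise ratio from the scanned slide images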
Conditions: higher = more signal
RECORDED_METRIC: composite z-score

{"COMPOUND": "COc1ccc([Si](C)(C)[C@@H]2[C@@H](CC(=O)N3CCC[C@H]3CO)O[C@]3(C(=O)N(Cc4cccc(N5CCC5=O)c4)c4ccccc43)[C@H]2C)cc1", "VALUE_MEASURED": 0.792}
{"COMPOUND": "CCc1cc2c(nc1CC)CCN(CCC(C)=NOC(C)CN1CCCc3nc(C)c(C)cc31)C2 (configuration not stated)", "VALUE_MEASURED": 0.876}
{"COMPOUND": "COc1ccc(O[C@H]2C=C[C@@H](c3ccccc3)O[C@@H]2COC(=O)CCC(C)=NOC[C@@H](C)[C@H](OCc2ccccc2)C(C)C)cc1", "VALUE_MEASURED": -0.278}
{"COMPOUND": "C[C@H](c1ccccc1)N1C(=O)[C@H]2[C@@H]3C(=CC[C@H]2C1=O)C(=O)[C@H]1O[C@H]1[C@H]3O", "VALUE_MEASURED": -0.239}
{"COMPOUND": "CN1C(=O)C2C(C1=O)C1C=C(CCCO)C2C(c2ccc(CN3CCCC3)cc2)N1C (configuration not stated)", "VALUE_MEASURED": 0.0811}
{"COMPOUND": "CC(C)(C)N1C(=O)[C@H]2[C@H]3[C@H](O)[C@H](O)CC(=NO[C@@H]4O[C@H](CO)[C@@H](O)[C@H](O)[C@H]4O)[C@@H]3CC[C@H]2C1=O", "VALUE_MEASURED": -0.147}
{"COMPOUND": "O=C(NN=C1C[C@@H](O)[C@@H](O)[C@@H]2[C@@H]3C(=O)N(c4ccc(F)cc4F)C(=O)[C@@H]3CC[C@@H]12)OCc1ccccc1", "VALUE_MEASURED": 0.0536}

====

Molecular target: Calmodulin-1 (Homo sapiens)
Test: calcium-bound CALM1 binders on microarrays, profiling panel, artefact control for SMM control-protein annotation, biochemical, small-molecule microarray, Cy5-labelled CALM1, plus calcium (AID 1112);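 also: score merges spot fluorescence with signal to noise from triplicate slides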
Conditions: Cy5-CALM1 binding fluorescence, higher = more signal
Binning scheme for composite z-score: low bin = under -0.3, mid bin = from -0.3 up to 0.4, high bin = 0.4 and over

{"COMPOUND": "CC(C)(C)OC(=O)CC[C@]1(C(=O)NCc2ccccc2)N=C(c2ccc(OCCCO)cc2)O[C@H]1c1ccccc1", "CATEGORY": "high bin"}
{"COMPOUND": "O=C1O[C@@H](c2ccccc2)[C@@H](c2ccccc2)N2[C@@H](c3ccccc3OCCO)[C@]3(C(=O)Nc4ccc(C#CCCO)cc43)[C@@H](C(=O)O)[C@H]12", "CATEGORY": "high bin"}
{"COMPOUND": "COC(=O)C1=C(C)[C@@H](O)[C@@H](C)[C@H](c2c(OC)c(OC)c(C)c(OC)c2OC)O1", "CATEGORY": "low bin"}
{"COMPOUND": "CN(C)CCCNC(=O)[C@@H]1c2ccccc2C(=O)N(Cc2cc(F)cc(C(F)(F)F)c2)[C@H]1c1ccc(CO)cc1", "CATEGORY": "mid bin"}
{"COMPOUND": "CO[C@H]1COC(=O)[C@@H]2CCCN2C(=O)[C@@H](C)COC(=O)CC=C[C@@H]1C", "CATEGORY": "low bin"}
{"COMPOUND": "CCOC(=O)CCN1C(=O)[C@H]2[C@H]3[C@H](O)[C@H](O)CC(=NOC[C@@H](O)COCc4ccco4)[C@@H]3CC[C@H]2C1=O", "CATEGORY": "mid bin"}
{"COMPOUND": "CO[C@@H]1COC(=O)[C@@H]2CCCN2C(=O)[C@@H](C)COC(=O)[C@H](COCc2ccccc2)NC(=O)CC=C[C@H]1C", "CATEGORY": "low bin"}
{"COMPOUND": "C#CCCCON=C1C[C@@H](O)[C@@H](O)[C@@H]2[C@@H]3C(=O)N(Cc4ccccc4)C(=O)[C@@H]3CC[C@H]12", "CATEGORY": "mid bin"}
{"COMPOUND": "O=C(CS)NCCCCCNC(=O)[C@@H]1C[C@@H]2C(=O)N[C@@H](Cc3ccccc3)C(=O)N2[C@@H]1c1ccc(O)cc1", "CATEGORY": "mid bin"}
{"COMPOUND": "CCCCc1nc2c(c3c1C[C@H](C)OC3)CN(CCC(C)C)CC2", "CATEGORY": "low bin"}
{"COMPOUND": "CC(=O)OC[C@H]1O[C@H](CCON=C(C)CCN2CCc3nc(-c4ccccc4)c(-c4ccccc4)cc3C2)C=C[C@@H]1OC(C)=O", "CATEGORY": "mid bin"}
{"COMPOUND": "CCOC(=O)[C@H](CC(C)C)NC(=O)CCC1CC(OC(=O)NCCc2ccc(F)cc2)CC2(CCCC(COC(=O)NCc3ccccc3)O2)O1 (stereo partly specified)", "CATEGORY": "mid bin"}
{"COMPOUND": "CC(CCN1CCc2nc(-c3ccccc3)c(-c3ccccc3)cc2C1)=NO[C@@H](C)c1cn([C@H](CO)Cc2ccccc2)nn1", "CATEGORY": "high bin"}
{"COMPOUND": "CC(C)C[C@@H]1NC(=O)[C@H]2C[C@@H](C(=O)NCCCCCCN(C)C)[C@@H](c3cccc(OCCO)c3)N2C1=O", "CATEGORY": "low bin"}
{"COMPOUND": "CC(C)OC(=O)C=C1C[C@@H](c2ccc(C#N)cc2)O[C@@H](c2ccc(C#N)cc2)O1", "CATEGORY": "high bin"}
{"COMPOUND": "COC(=O)[C@@H]1N=C(c2ccc(OCCCO)cc2)O[C@@H]1c1ccccc1N=[N+]=[N-]", "CATEGORY": "high bin"}

====

z-score listing for selected compounds.
Test: splicing luciferase reporter signal modulators, primary screen, spliceosome inhibition project, cell-based, HEK293, splice +/- reporter (AID 1101);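 also: HEK293 cells carrying a splicing-competent luciferase reporter gene; test concentration not given here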
Settings: luminescence, 24 h, higher = more signal, called active from +8 up or from −8 down
RECORDED_METRIC: z-score

{"COMPOUND": "COC(=O)CC=C[C@@H](C)[C@@H](C=NO[C@@H](C)c1cc(-c2c(C)cc(C)cc2C)no1)OC", "RECORDED_METRIC": "z-score", "VALUE_MEASURED": -1.2}
{"COMPOUND": "COC(=O)[C@@H]1CC[C@H](C)[C@@H](c2ccc(C)cc2)N1C(=O)c1ccc(C=NOC[C@@H](O)COCc2ccco2)cc1", "RECORDED_METRIC": "z-score", "VALUE_MEASURED": -0.0402}
{"COMPOUND": "CCOC(=O)C1=CCC(c2cc3ccccc3[nH]2)NC1 (stereo unspecified)", "RECORDED_METRIC": "z-score", "VALUE_MEASURED": -1.02}
{"COMPOUND": "O=C1O[C@@H](c2ccccc2)[C@@H](c2ccccc2)N2[C@@H](c3ccc(O)cc3)[C@]3(C(=O)Nc4ccccc43)[C@@H](C(=O)O)[C@H]12", "RECORDED_METRIC": "z-score", "VALUE_MEASURED": 0.451}
{"COMPOUND": "CC(CCN1CCc2nc(-c3ccccc3)c(-c3ccccc3)cc2C1)=NO[C@@H](C)c1cn([C@H](CO)Cc2ccccc2)nn1", "RECORDED_METRIC": "z-score", "VALUE_MEASURED": -1.26}
{"COMPOUND": "C[C@H](c1ccccc1)N1C(=O)[C@H]2[C@@H]3C(=CC[C@H]2C1=O)C(=O)[C@H]1O[C@H]1[C@H]3O", "RECORDED_METRIC": "z-score", "VALUE_MEASURED": 4.45}
{"COMPOUND": "CCN1C(=O)[C@H]2[C@H]3[C@H](O)[C@H](O)CC(=NOC(C)CN4CCCCc5nc(C)c(C)cc54)[C@@H]3CC[C@H]2C1=O (stereo partly specified)", "RECORDED_METRIC": "z-score", "VALUE_MEASURED": 0.279}
{"COMPOUND": "COCCNC(=O)OCC1CCCC2(CC(OC(=O)NCCc3ccc(F)cc3)CC(CCC(=O)N[C@@H](C)C(=O)OC)O2)O1 (stereo partly specified)", "RECORDED_METRIC": "z-score", "VALUE_MEASURED": -1.09}
{"COMPOUND": "CCOC(=O)CCN1C(=O)[C@H]2[C@H]3[C@H](O)[C@H](O)CC(=NOC[C@@H](O)COCc4ccco4)[C@H]3CC[C@H]2C1=O", "RECORDED_METRIC": "z-score", "VALUE_MEASURED": -1.12}
{"COMPOUND": "COCC(=C=CC[C@@H](O)c1ccccc1OCCO)CCO", "RECORDED_METRIC": "z-score", "VALUE_MEASURED": 0.0385}
{"COMPOUND": "CCN1C(=O)[C@H]2[C@H]3[C@H](O)C=CC(=O)[C@@H]3CC[C@H]2C1=O", "RECORDED_METRIC": "z-score", "VALUE_MEASURED": 0.403}
{"COMPOUND": "COC(=O)CC=C[C@H](C)[C@@H](OCc1ccccc1Br)C(C)C", "RECORDED_METRIC": "z-score", "VALUE_MEASURED": -0.76}
{"COMPOUND": "CN(C)C(=O)[C@@]1(Cc2ccccc2)N=C(c2ccc(OCCCO)cc2)O[C@H]1c1ccccc1CN=[N+]=[N-]", "RECORDED_METRIC": "z-score", "VALUE_MEASURED": 0.32}
{"COMPOUND": "C#CCCCON=C1C[C@@H](O)[C@@H](O)[C@@H]2[C@@H]3C(=O)N(Cc4ccccc4)C(=O)[C@@H]3CC[C@H]12", "RECORDED_METRIC": "z-score", "VALUE_MEASURED": -0.658}
{"COMPOUND": "COc1cccc([C@H]2Oc3ccc(OC)cc3C(=NOC(C)CN3CCCc4nc(C)c(C)cc43)[C@@H]2O)c1 (stereo partly specified)", "RECORDED_METRIC": "z-score", "VALUE_MEASURED": -0.467}
{"COMPOUND": "CCc1cc2c(nc1CC)CCN(CCC(C)=NOC(C)CN1CCCc3nc(C)c(C)cc31)C2 (stereo unspecified)", "RECORDED_METRIC": "z-score", "VALUE_MEASURED": 0.211}
{"COMPOUND": "Cc1cc2c(c(=O)o1)[C@H](O)[C@H]1O[C@H]1C2=O", "RECORDED_METRIC": "z-score", "VALUE_MEASURED": -0.331}
{"COMPOUND": "CCOC(=O)C[C@H]1[C@H](OC(=O)c2cc3ccccc3oc2=O)[C@@H](NC(=O)c2ccc3ccccc3n2)c2cc(OCCCO)ccc2N1C(=O)c1ccccc1", "RECORDED_METRIC": "z-score", "VALUE_MEASURED": -0.38}
{"COMPOUND": "COc1cccc([C@H]2Oc3ccc(OC)cc3C(=NO[C@H](C)c3cn([C@@H]4COC[C@H]4O)nn3)[C@@H]2O)c1", "RECORDED_METRIC": "z-score", "VALUE_MEASURED": -0.992}
{"COMPOUND": "C=CCN1C(=O)[C@]2(O[C@H](CCn3cc(CCO)nn3)[C@@H]([Si](C)(C)c3ccc(OC)cc3)[C@@H]2C)c2cc(N3CCOC3=O)ccc21", "RECORDED_METRIC": "z-score", "VALUE_MEASURED": 2.29}
{"COMPOUND": "COCCOC(=O)N1C(=O)[C@@]2(c3cc(C#CCNC(N)=O)ccc31)[C@H](c1ccc(O)cc1)N1[C@H](c3ccccc3)[C@H](c3ccccc3)OC(=O)[C@H]1[C@@H]2C(=O)N1CCCCCCC1", "RECORDED_METRIC": "z-score", "VALUE_MEASURED": -0.364}
{"COMPOUND": "CCCC[C@@H]1C[C@H]1[C@@H](NS(=O)(=O)c1cccc2cccnc12)c1ccc(-c2ccccc2)cc1", "RECORDED_METRIC": "z-score", "VALUE_MEASURED": 1.19}
{"COMPOUND": "CC[C@@H](c1ccccc1)n1c(=O)n2n(c1=O)[C@H]1[C@H](O)[C@@H]3O[C@@H]3C(=NOCC=C(C)CCC=C(C)C)[C@H]1CC2", "RECORDED_METRIC": "z-score", "VALUE_MEASURED": 1.95}
{"COMPOUND": "O=C1[C@H]2[C@H]3[C@H](O)[C@H](O)CC(=NOCc4ccccc4)[C@H]3CC[C@H]2C(=O)N1C[C@@H]1CCCO1", "RECORDED_METRIC": "z-score", "VALUE_MEASURED": 0.0221}
{"COMPOUND": "COC(=O)C1=CCC(c2cccc(Cl)c2)O1 (stereo unspecified)", "RECORDED_METRIC": "z-score", "VALUE_MEASURED": -1.15}
{"COMPOUND": "Cc1ccc(C2CC=C(C(=O)O)CN2S(=O)(=O)c2ccc(C)cc2)cc1 (stereo unspecified)", "RECORDED_METRIC": "z-score", "VALUE_MEASURED": -0.16}
{"COMPOUND": "COc1ccc(O[C@H]2C=C[C@@H](c3ccccc3)O[C@@H]2COC(=O)CCC(C)=NOCC[C@@H]2C=C[C@H](OC(C)=O)[C@@H](COC(C)=O)O2)cc1", "RECORDED_METRIC": "z-score", "VALUE_MEASURED": -0.484}
{"COMPOUND": "CC(C)=NOCc1ccc(-c2cc(-c3ccccc3)no2)cc1", "RECORDED_METRIC": "z-score", "VALUE_MEASURED": 0.468}
{"COMPOUND": "COC(=O)c1c(CC[C@@H](CO)NC(=O)N[C@H](Cc2ccccc2)Cn2cc(-c3ccccc3N)nn2)oc(C(C)=O)c1C(=O)OC", "RECORDED_METRIC": "z-score", "VALUE_MEASURED": 0.433}
{"COMPOUND": "COC(=O)[C@H](C)NC(=O)CCC1CC(OC(=O)NCc2ccc3c(c2)OCO3)CC2(CCCC(COC(=O)NCCOc3ccccc3)O2)O1 (stereo partly specified)", "RECORDED_METRIC": "z-score", "VALUE_MEASURED": -2.8}
{"COMPOUND": "COCCOC(=O)N1C(=O)[C@@]2(c3ccccc31)[C@H](C(N)=O)[C@H]1C(=O)O[C@H](c3ccccc3)[C@H](c3ccccc3)N1[C@@H]2c1ccccc1OCCO", "RECORDED_METRIC": "z-score", "VALUE_MEASURED": -0.0592}
